B1: ZMYND11 (parent)
chain: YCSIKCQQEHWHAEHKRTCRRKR

- Variants of: B1
- protocol: protein stability index of a GFP-peptide fusion (GPS, HEK-293T) (PSI 1-6); higher = more stable;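 note: lentivirally expressed fusions sorted by FACS into six bins by GFP to DsRed ratio, PSI derived from sequencing read proportions per bin multiplied by bin number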
- condition.notes: c terminus: native
Field: protein stability index. Provide a value for each of the variants that follow.
# print the numeric value only

Entry W11N : reported protein stability index = ?
3.98

Entry R21M : reported protein stability index = ?
2.4

Entry W11T : reported protein stability index = ?
4.7

Entry C6A : reported protein stability index = ?
2.39

Entry Q7Y : reported protein stability index = ?
2.35

Entry A13L : reported protein stability index = ?
1.61

Entry K16R : reported protein stability index = ?
1.76

Entry Q7V : reported protein stability index = ?
1.37

Entry A13F : reported protein stability index = ?
1.83

Entry C19F : reported protein stability index = ?
2.24

Entry T18E : reported protein stability index = ?
2.56

Entry H10K : reported protein stability index = ?
2.12

Entry R17K : reported protein stability index = ?
2.27

Entry R17M : reported protein stability index = ?
2.32

Entry Q8H : reported protein stability index = ?
2.21

Entry K16N : reported protein stability index = ?
2.11

Entry R17E : reported protein stability index = ?
2.65

Entry Q7D : reported protein stability index = ?
2.56

Entry R17Q : reported protein stability index = ?
2.39

Entry K16L : reported protein stability index = ?
2.42

Entry E14R : reported protein stability index = ?
2.35

Entry K16S : reported protein stability index = ?
2.56

Entry H15F : reported protein stability index = ?
1.44

Entry W11D : reported protein stability index = ?
4.43

Entry Q7G : reported protein stability index = ?
2.46

Entry H10L : reported protein stability index = ?
1.65

Entry Q8N : reported protein stability index = ?
2.55

Entry R23V : reported protein stability index = ?
1.26

Entry A13R : reported protein stability index = ?
2.49

Entry H12A : reported protein stability index = ?
2.35

Entry S3H : reported protein stability index = ?
2.24

Entry E14G : reported protein stability index = ?
3.11

Entry Y1T : reported protein stability index = ?
3.67

Entry Q8T : reported protein stability index = ?
1.86

Entry K5R : reported protein stability index = ?
3.15

Entry T18C : reported protein stability index = ?
2.85

Entry R20K : reported protein stability index = ?
1.72

Entry S3T : reported protein stability index = ?
2.48

Entry R21V : reported protein stability index = ?
2.61

Entry E14S : reported protein stability index = ?
2.48

Entry H10R : reported protein stability index = ?
3.33
